assay.explanation: UKN2_HCS_IMR90_neural_migration: University of Konstanz (UKN) Leist Lab Neural Crest Cell Migration Assay in human induced IMR90 Pluripotent Stem Cells (UKN2) (AID 2284204)
measurement.setup: actives raise or lower the signal
Calls of active or inactive are those of the source. Rule for the calls: active = hit-call score of the fitted dose curve at least 0.9, where 1 is the maximum; inactive = score below 0.9.
quantity.name: AC50

>>> result("CCOP(=O)(Oc1cnc(C(C)(C)C)nc1)OC(C)C (stereo not given)")
"inactive"
>>> result("Cn1nc(C(F)(F)F)c(CS(=O)(=O)C2=NOC(C)(C)C2)c1OC(F)F")
"inactive"
>>> result("C/C(=C/C=C/[C@@H](C)C(=O)O)[C@H]1CN[C@H](C(=O)O)[C@H]1CC(=O)O")
"inactive"
>>> result("[CH3][Sn]([CH3])([CH3])[Cl]")
"7.88 µM (active)"
>>> result("CCOP(=O)(OCC)SCSCC")
"inactive"
>>> result("CN1CC[C@]23c4c5ccc(O)c4O[C@H]2[C@@H](O)C=C[C@H]3[C@H]1C5")
"inactive"
>>> result("CC1(C)C(C=C(Cl)Cl)[C@H]1C(=O)O[C@H](C#N)c1cccc(Oc2ccccc2)c1 (stereo not given in full)")
"inactive"
>>> result("Brc1ccc(Oc2ccc(Br)cc2Br)c(Br)c1")
"inactive"
>>> result("[CH3][Hg][Cl]")
"5 µM (active)"
>>> result("CN[C@@H](C)Cc1ccccc1")
"inactive"
>>> result("C[n+]1ccc(-c2cc[n+](C)cc2)cc1")
"inactive"
>>> result("CC1(C)[C@H](C(=O)O[C@H](C#N)c2cccc(Oc3ccccc3)c2)[C@@H]1C=C(Br)Br")
"inactive"
>>> result("Brc1ccc(Oc2cc(Br)c(Br)cc2Br)c(Br)c1")
"inactive"
>>> result("CP(=O)(O)CCC(N)C(=O)O (stereo not given)")
"inactive"
>>> result("CC1(C)C(C=C(Cl)Cl)C1C(=O)O[C@H](C#N)c1cccc(Oc2ccccc2)c1 (stereo not given in full)")
"inactive"
>>> result("COC(=O)[C@H]1[C@@H](OC(=O)c2ccccc2)C[C@@H]2CC[C@H]1N2C")
"inactive"
>>> result("CNC1(c2ccccc2Cl)CCCCC1=O (stereo not given)")
"inactive"
>>> result("[Cd+2].[Cl-].[Cl-]")
"0.88 µM (active)"
>>> result("CC(=O)Oc1ccc2c3c1O[C@H]1[C@@H](OC(C)=O)C=C[C@H]4[C@@H](C2)N(C)CC[C@@]341")
"inactive"
>>> result("[O-][Cl+3]([O-])([O-])O")
"inactive"

* * *

assay.explanation: BSK_3C_uPAR: BioMAP Diversity Plus: 3C Assay for Urokinase-type plasminogen activator receptor (uPAR) Biomarker Activity (AID 2282998)
measurement.setup: BioMAP 3C HUVEC, uPAR biomarker ELISA; actives raise or lower the signal
Active and inactive are the calls of the source. The calls were made as follows: active = hit-call score of the fitted dose curve at least 0.9, where 1 is the maximum; inactive = score below 0.9.
Labels: t (active), f (inactive)

>>> qualitative_label("O=C(CCl)c1ccccc1")
"t"
>>> qualitative_label("[Cd+2].[Cl-].[Cl-]")
"f"
>>> qualitative_label("O=c1c2ccccc2c(=O)c2c1cc(Cl)c1[nH]c3c([nH]c12)c(Cl)cc1c(=O)c2ccccc2c(=O)c13")
"f"
>>> qualitative_label("Nc1ccc(-c2ccc(N)c(N)c2)cc1N")
"f"
>>> qualitative_label("CC(=O)/C=C/c1ccccc1")
"f"
>>> qualitative_label("CCCC[N+](CCCC)(CCCC)CCCC")
"f"
>>> qualitative_label("N#CCCCCC#N")
"f"
>>> qualitative_label("Oc1cc(Cl)ccc1Cl")
"f"
>>> qualitative_label("COCC(=O)N(c1c(C)cccc1C)N1CCOC1=O")
"f"
>>> qualitative_label("COc1ccc(CO)cc1")
"f"
>>> qualitative_label("C=CC(=O)OCC(CC)CCCC (stereo unspecified)")
"f"
>>> qualitative_label("C=CCN(CC=C)C(=O)C(Cl)Cl")
"f"
>>> qualitative_label("CNC(=O)Oc1cc(C)c(SC)c(C)c1")
"f"
>>> qualitative_label("CCC(C)c1cc([N+](=O)[O-])cc([N+](=O)[O-])c1OC(=O)C=C(C)C (stereo unspecified)")
"t"
>>> qualitative_label("c1ccc(Nc2ccc3ccccc3c2)cc1")
"t"
>>> qualitative_label("CC(C)(c1cc(Cl)c(O)c(Cl)c1)c1cc(Cl)c(O)c(Cl)c1")
"t"
>>> qualitative_label("O=C1C(Cl)=C(Cl)C(=O)C(Cl)=C1Cl")
"t"
>>> qualitative_label("Cc1ccc(OP(=O)(Oc2ccc(C)cc2)Oc2ccc(C)cc2)cc1 (tested in a mixture with another compound)")
"f"
>>> qualitative_label("CC(C)(C)C(=O)CCl")
"f"
>>> qualitative_label("CC(C)CCCCCCCOP(=O)(Oc1ccccc1)Oc1ccccc1")
"t"
>>> qualitative_label("CCCOC(=O)c1ccccc1C(=O)OCCC")
"f"

* * *

assay.explanation: CCTE_Shafer_MEA_acute_per_network_burst_electrodes_number_mean: CCTE's Neural Acute Assay for Mean Number of Electrodes in a Network Burst, Shafer Lab (AID 2284021);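 note: curves fitted for decreases only so hits reduce electrodes per burst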
Description: CCTE_Shafer_MEA_acute assay is conducted using Axion Biosystems 48 well microelectrode array (MEA) plates and Maestro recording system. Each well of the MEA plate contains a grid of 16 microelectrodes embedded in the culture surface. Electrically active cells, such as neurons, can be cultured over the electrodes, and electrical activity in these cells can be recorded extracellularly. […]
The source made the active and inactive calls. The calls were made as follows: active = hit-call score of the fitted dose curve at least 0.9, where 1 is the maximum; inactive = score below 0.9.
quantity.name: AC50

>>> result("CC1(C)[C@@H](C=C(Cl)Cl)[C@@H]1C(=O)O[C@@H](C#N)c1ccc(F)c(Oc2ccccc2)c1")
"1.68 µM (active)"
>>> result("CP(=O)(O)CCC(N)C(=O)O (stereo not drawn)")
"inactive"
>>> result("CC1(C)[C@H](C(=O)O[C@H](C#N)c2cccc(Oc3ccccc3)c2)[C@@H]1C=C(Br)Br")
"inactive"
>>> result("C#CCN(C)[C@H](C)Cc1ccccc1")
"inactive"
>>> result("O=c1c2ccccc2c(=O)c2c1cc(Cl)c1[nH]c3c([nH]c12)c(Cl)cc1c(=O)c2ccccc2c(=O)c13")
"inactive"
>>> result("Cc1ccc(OP(=O)(Oc2ccc(C)cc2)Oc2ccc(C)cc2)cc1 (tested in a mixture with another compound)")
"7.68 µM (active)"
>>> result("[Cd+2].[Cl-].[Cl-]")
"inactive"
>>> result("O=[N+]([O-])O")
"inactive"

* * *

measured.target: Transcription factor Sp1 (Homo sapiens) (UniProt P08047)
Sequence (P08047 whole entry, looked up): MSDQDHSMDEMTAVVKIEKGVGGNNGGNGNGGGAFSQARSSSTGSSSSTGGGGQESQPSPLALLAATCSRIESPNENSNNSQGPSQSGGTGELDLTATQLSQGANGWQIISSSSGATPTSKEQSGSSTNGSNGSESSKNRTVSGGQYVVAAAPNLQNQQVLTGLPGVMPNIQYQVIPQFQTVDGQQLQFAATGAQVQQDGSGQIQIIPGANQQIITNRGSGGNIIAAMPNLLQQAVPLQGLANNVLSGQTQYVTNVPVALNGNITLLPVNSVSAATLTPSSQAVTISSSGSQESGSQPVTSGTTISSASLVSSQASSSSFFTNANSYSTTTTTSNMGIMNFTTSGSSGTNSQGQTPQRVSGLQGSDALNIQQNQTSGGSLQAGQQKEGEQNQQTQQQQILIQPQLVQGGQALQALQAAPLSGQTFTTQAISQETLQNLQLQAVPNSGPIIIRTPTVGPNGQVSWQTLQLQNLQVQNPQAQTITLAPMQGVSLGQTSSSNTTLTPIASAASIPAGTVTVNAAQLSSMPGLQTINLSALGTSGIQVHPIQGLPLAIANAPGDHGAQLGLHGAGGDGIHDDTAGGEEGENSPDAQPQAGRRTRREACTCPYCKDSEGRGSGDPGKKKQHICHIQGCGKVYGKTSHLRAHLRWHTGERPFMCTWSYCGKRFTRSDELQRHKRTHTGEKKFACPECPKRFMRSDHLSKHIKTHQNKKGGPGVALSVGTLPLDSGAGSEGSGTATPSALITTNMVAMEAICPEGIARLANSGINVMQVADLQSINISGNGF
assay.explanation: ATG_Sp1_CIS: Attagene CIS-FACTORIAL HepG2 Assay for human Specificity Protein 1 (Sp1) (AID 2282961)
measurement.setup: HepG2 Sp1 cis-reporter transcription, actives raise or lower the signal
Active and inactive are the calls of the source. How the source made its calls: active means hit-call score of the fitted dose curve at least 0.9, where 1 is the maximum; inactive means score below 0.9.
Labels: true (1) (active), false (0) (inactive)

>>> qualitative_label("O=[N+]([O-])O.O=[N+]([O-])O.[Cd]")
"true (1)"
>>> qualitative_label("CC(=O)c1cc2c(cc1C)C(C)(C)C(C)CC2(C)C (stereo not drawn)")
"true (1)"
>>> qualitative_label("C=C(Cl)CCl")
"false (0)"
>>> qualitative_label("C#CC1(O)CCCCC1")
"false (0)"
>>> qualitative_label("CNC(=O)Oc1cc(C)c(SC)c(C)c1")
"false (0)"
>>> qualitative_label("CC(O)CN(CC(C)O)CC(C)O (stereo not drawn)")
"false (0)"
>>> qualitative_label("N#CCNCC#N")
"false (0)"
>>> qualitative_label("ClC1=C(Cl)[C@]2(Cl)[C@@H]3[C@@H](Cl)[C@H](Cl)C[C@@H]3[C@@]1(Cl)C2(Cl)Cl")
"false (0)"
>>> qualitative_label("Oc1ccc(Cl)cc1")
"false (0)"
>>> qualitative_label("CC(Cc1ccc(C(C)(C)C)cc1)CN1C[C@@H](C)O[C@@H](C)C1 (stereo partly drawn)")
"false (0)"
>>> qualitative_label("O=[N+]([O-])c1cc([N+](=O)[O-])c2ccccc2c1")
"false (0)"
>>> qualitative_label("CC(C)(C)C(O)C(Oc1ccc(-c2ccccc2)cc1)n1cncn1 (stereo not drawn)")
"false (0)"
>>> qualitative_label("CCC1CCC(=O)O1 (stereo not drawn)")
"false (0)"

* * *

measured.target: Cellular tumor antigen p53 (Homo sapiens) (UniProt P04637)
Sequence (P04637 whole entry, looked up): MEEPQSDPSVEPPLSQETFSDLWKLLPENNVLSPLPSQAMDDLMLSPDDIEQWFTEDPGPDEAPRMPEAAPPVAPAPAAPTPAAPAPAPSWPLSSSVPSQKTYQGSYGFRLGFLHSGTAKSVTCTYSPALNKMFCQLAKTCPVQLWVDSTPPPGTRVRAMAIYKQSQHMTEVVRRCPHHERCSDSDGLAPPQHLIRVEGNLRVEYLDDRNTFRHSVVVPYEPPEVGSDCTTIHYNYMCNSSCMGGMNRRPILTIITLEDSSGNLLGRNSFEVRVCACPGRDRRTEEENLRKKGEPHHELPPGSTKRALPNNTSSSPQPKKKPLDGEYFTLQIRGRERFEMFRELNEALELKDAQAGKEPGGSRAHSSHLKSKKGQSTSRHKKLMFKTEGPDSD
assay.explanation: TOX21_p53_BLA_p3_ratio: Tox21 HCT-116 p53 Agonism Beta-lactamase Assay, Ratio, Phase 3 (AID 2283596)
Inconclusive results are not listed. Calls of active or inactive are those of the source. The calls were made as follows: active = hit-call score of the fitted dose curve at least 0.9, where 1 is the maximum; inconclusive = response in the unintended direction; inactive = score below 0.9.
Labels: 1 = active, -1 = inactive

>>> qualitative_label("C=CC[C@]1(O)CC[C@H]2[C@@H]3CCC4=CC(=O)CCC4=C3C=C[C@@]21C")
-1
>>> qualitative_label("Nc1ccc([N+](=O)[O-])cc1N")
-1
>>> qualitative_label("CC(C)(C)NCC(O)c1ccccc1Cl (stereo not given)")
-1
>>> qualitative_label("CC(CCc1ccccc1)NC(C)C(O)c1ccc(O)cc1 (stereo not given)")
-1
>>> qualitative_label("COc1cc(N)c(Cl)cc1C(=O)NC1CN2CCC1CC2 (stereo not given)")
-1
>>> qualitative_label("Oc1c(Br)c(Br)c(Br)c(Br)c1Br")
1
>>> qualitative_label("CC(C)[N+](C)(CCC(C(N)=O)(c1ccccc1)c1ccccc1)C(C)C")
-1
>>> qualitative_label("C=CCBr")
-1
>>> qualitative_label("CCC1(c2ccccc2)C(=O)NC(=O)NC1=O")
-1
>>> qualitative_label("COc1ccc(CO)cc1")
-1
>>> qualitative_label("O=[N+]([O-])O[C@H]1CO[C@H]2[C@@H]1OC[C@H]2O[N+](=O)[O-]")
-1
>>> qualitative_label("Nc1c(Br)cc([N+](=O)[O-])cc1[N+](=O)[O-]")
-1
>>> qualitative_label("COC(=O)C(Br)CBr (stereo not given)")
1
>>> qualitative_label("C[C@@H]1CC[C@@]2(OC1)O[C@H]1[C@@H](O)[C@H]3[C@@H]4CC[C@H]5C[C@@H](O[C@@H]6O[C@H](CO)[C@H](O[C@@H]7O[C@H](CO)[C@@H](O)[C@H](O[C@@H]8OC[C@@H](O)[C@H](O)[C@H]8O)[C@H]7O[C@@H]7O[C@H](CO)[C@@H](O)[C@H](O[C@@H]8O[C@H](CO)[C@@H](O)[C@H](O)[C@H]8O)[C@H]7O)[C@H](O)[C@H]6O)[C@H](O)C[C@]5(C)[C@H]4CC[C@]3(C)[C@H]1[C@@H]2C")
1
>>> qualitative_label("Cc1nnc(-c2ccccc2)c(=O)n1N")
-1
>>> qualitative_label("C=C1C[C@@H]2[C@H](CC[C@]3(C)C(=O)CC[C@@H]23)[C@@]2(C)C=CC(=O)C=C12")
-1
>>> qualitative_label("CN1CCN(C(=O)O[C@H]2c3nccnc3C(=O)N2c2ccc(Cl)cn2)CC1")
-1
>>> qualitative_label("O=C1C=C2C=C[C@@H]3C[C@@]2(O1)[C@H]1CCCCN31")
-1
>>> qualitative_label("O=c1ccc2cc(O[C@@H]3O[C@H](CO)[C@@H](O)[C@H](O)[C@H]3O)c(O)cc2o1")
1
>>> qualitative_label("COC(=O)C(C)N(C(=O)Cc1ccccc1)c1c(C)cccc1C (stereo not given)")
-1
